System: DFO2036
Test Description: qHTS profiling for inhibitors of Plasmodium falciparum proliferation (AID 504749); note: nearly all actives have a fitted effect of over 60% in size
Condition Set: P. falciparum in erythrocytes, SYBR Green DNA, 72 h; series mostly up to 28.7 µM
Records with an inconclusive call do not appear. Activity calls are given as the source filed them. Calls come from the whole dose curve; as a rule, active = well fitted inhibition curve with a large enough effect; inconclusive = small, poorly fitted or top-dose-only effect; inactive = flat fitted curve, though single readings scatter.
Labels: True (active), False (inactive)

Compound | Measured On | Qualitative Label
C[C@@H](Cc1ccc(O)cc1)NC[C@@H](O)c1cc(O)cc(O)c1 | DFO2036 | False
C=C[C@@H]1CN2CC[C@H]1C[C@H]2[C@H](O)c1ccnc2ccccc12 | DFO2036 | True
C[N+]1(C)C2CC[C@H]1CC(OC(=O)[C@@H](CO)c1ccccc1)C2 (some centres undefined) | DFO2036 | False
C[C@@H]1O[C@@H](O[C@H]2C[C@@H](O)[C@@]3(CO)[C@H]4[C@H](O)C[C@]5(C)[C@@H](C6=CC(=O)OC6)CC[C@]5(O)[C@H]4CC[C@@]3(O)C2)[C@@H](O)[C@H](O)[C@H]1O | DFO2036 | False

###

Measured On: Cytochrome P450 1A2 (Homo sapiens) (UniProt P05177)
Sequence (P05177 whole entry, looked up): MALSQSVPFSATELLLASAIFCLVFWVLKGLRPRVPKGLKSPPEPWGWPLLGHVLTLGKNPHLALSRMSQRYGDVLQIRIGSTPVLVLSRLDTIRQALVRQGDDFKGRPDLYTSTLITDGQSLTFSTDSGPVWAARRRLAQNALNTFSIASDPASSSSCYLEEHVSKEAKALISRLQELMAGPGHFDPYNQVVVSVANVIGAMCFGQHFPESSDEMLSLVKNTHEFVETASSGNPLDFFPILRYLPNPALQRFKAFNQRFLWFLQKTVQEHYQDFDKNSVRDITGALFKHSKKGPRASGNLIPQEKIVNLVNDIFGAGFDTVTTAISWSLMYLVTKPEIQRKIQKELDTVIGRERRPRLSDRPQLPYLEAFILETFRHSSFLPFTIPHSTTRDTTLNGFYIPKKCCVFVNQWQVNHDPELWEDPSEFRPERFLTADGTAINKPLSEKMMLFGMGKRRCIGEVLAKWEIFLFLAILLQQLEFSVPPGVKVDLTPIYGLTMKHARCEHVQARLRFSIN
Test Description: p450-cyp1a2 (AID 410)
Condition Set: recombinant CYP1A2, luciferin-ME demethylation, luminescence; series mostly up to 11.4 µM
Records with an inconclusive call do not appear. Activity calls are given as the source filed them. The call rests on the fitted dose curve.
Labels: active, inactive

Mol Smiles | Measured On | Qualitative Label
N[C@H](Cn1oc(=O)[nH]c1=O)C(=O)O | Cytochrome P450 1A2 (Homo sapiens) (UniProt P05177) | inactive
COc1cc2cc(c1Cl)N(C)C(=O)C[C@H](OC(=O)C(C)C)[C@]1(C)O[C@@H]1[C@@H](C)[C@H]1C[C@](O)(NC(=O)O1)[C@@H](OC)/C=C\C=C(\C)C2 | Cytochrome P450 1A2 (Homo sapiens) (UniProt P05177) | inactive
O=C(O)c1cc[c]([Hg][S]c2ncnc3nc[nH]c23)cc1 | Cytochrome P450 1A2 (Homo sapiens) (UniProt P05177) | active
CO[C@H]1[C@H](O)[C@H](O[C@@H]2[C@H](Oc3cccc4c(O)c5c(=O)oc6ccc(C)c7c(=O)oc(c34)c5c67)O[C@@H](C)[C@H](O)[C@H]2O)O[C@@H](C)[C@@H]1O | Cytochrome P450 1A2 (Homo sapiens) (UniProt P05177) | inactive
c1ccc2c(c1)Sc1ccccc1N2C[C@H]1CN2CCC1CC2 | Cytochrome P450 1A2 (Homo sapiens) (UniProt P05177) | inactive
NCCSC(c1ccccc1)c1ccccc1 | Cytochrome P450 1A2 (Homo sapiens) (UniProt P05177) | active
C[C@]12CC[C@H](O)C[C@@H]1CC[C@H]1[C@H]2CC[C@]2(C)[C@H](C(=O)CO)CC[C@@H]12 | Cytochrome P450 1A2 (Homo sapiens) (UniProt P05177) | active
O=C(O)CSCC(=O)O | Cytochrome P450 1A2 (Homo sapiens) (UniProt P05177) | inactive
CC(C)N[C@@H](C)Cc1ccc(I)cc1 | Cytochrome P450 1A2 (Homo sapiens) (UniProt P05177) | active

###

Test Description: Stat Signaling Pathway (AID 446);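 note: ME-180 cervical cancer cells given 40 pM IL-6 alongside compound; SIE-controlled beta-lactamase reporter measured as 460/530 nm FRET emission ratio; % is set by controls: 0 for no effect and ±100 for the full control effect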
Condition Set: ME-180 (cervical carcinoma) SIE beta-lactamase reporter, IL-6 stimulated, 5 h; at 7.69 µM (top of the series) unless noted
Inconclusive results are not listed. The source made the active and inactive calls. The call rests on the fitted dose curve; in most records, active means well fitted curve in either direction with a large enough effect (not every such curve was filed as active); inconclusive means small, poorly fitted or top-dose-only effect, or another doubt; inactive means flat fitted curve, though single readings scatter.
// activity, negative = inhibition lookup, one value per entry
Parameter Measured: activity, negative = inhibition

Compound | Obs Value
O=S(=O)(O)/C(=C\c1ccccc1)c1ccccc1 (tested in a mixture with another compound) | 7.2% (inactive)
CN(C)[C@@H]1C(=O)C(C(N)=O)=C(O)[C@]2(O)C(=O)C3=C(O)c4c(O)cccc4[C@](C)(O)[C@H]3C[C@@H]12 | -10.5% (inactive)
O=C(O)[C@H]1[O][Sb][O][C@@H](C(=O)O)C1O (stereo not given in full) | 6.32% (inactive)
CC(C)N[C@@H](C)Cc1ccc(I)cc1 | -4.05% [at 38 µM] (inactive)
[N-]=[N+]=CC(=O)CC[C@H](N)C(=O)O | 6.39% (inactive)

###

// activation lookup, one value per entry
Test Description: qHTS assay for environmental chemicals that activate the Aryl hydrocarbon Receptor (AhR) signaling pathway (AID 651777); note: % of control where 0% means no effect; nearly all actives have a fitted effect of over 15% in size
Condition Set: 1A2-DRE human hepatoma cells, luciferase, 24 h; hits give high values
Records with an inconclusive call do not appear.

Molecule | Unit Annotation | activation
BrC(Br)Br | % | 2.01
O=C(O)C(Br)CBr (configuration not stated) | % | 2.43
Oc1c(Cl)cccc1Cl | % | 0.939
C=CC(=O)OC | % | 1.42
O=P(OCCCl)(OCCCl)OCCCl | % | 0.332
Nc1ccc([N+](=O)[O-])cc1[N+](=O)[O-] | % | 0.484
N#CC(Cl)(Cl)Cl | % | 0.19
O=C(O)CBr | % | -0.817
Nc1ccc(-c2ccccc2)cc1 | % | 12.6
CC1CC(=O)O1 (configuration not stated) | % | 0.52
CCCC[N+](=O)[O-] | % | 0.218
Oc1cc(Cl)c(Cl)c(Cl)c1Cl | % | 4.37
Cc1cc(Cl)ccc1O | % | 0.484
CC(C)OS(C)(=O)=O | % | 1.58
Oc1ccc(Cl)c(Cl)c1 | % | 1.35
OCC(Cl)CCl (configuration not stated) | % | 1.02
C=C(C)CCl | % | -0.792
CC(=O)[O-].CC(=O)[O-].CC(=O)[O-].[Cr+3] | % | -2.21
CC(C)CC(C)N (configuration not stated) | % | 0.111
ClC(Cl)c1ccccc1 | % | -2.06
CCOC(=O)C1OC1(C)c1ccccc1 (configuration not stated) | % | -0.466
COc1c(C(C)(C)C)cc([N+](=O)[O-])c(C)c1[N+](=O)[O-] | % | 0.103
O=[N+]([O-])c1ccccc1-c1ccccc1 | % | -0.891
Cc1cnc[nH]1 | % | 1.06
ClCCBr | % | 3.31
COc1ccc(C=O)cc1 | % | 0.954
O=C(O)C(Cl)(Cl)Br | % | 0.0306
ClCC(Cl)Cl | % | 1.04
O=C(O)C(Cl)Br (configuration not stated) | % | 0.968
Clc1cccc2ccccc12 | % | -0.754
CCNCC | % | -0.962
CC(C#N)CCC#N (configuration not stated) | % | -0.458
CCOS(C)(=O)=O | % | 0.384
N#CCBr | % | 13.7
S=c1[nH]c2ccccc2[nH]1 | % | 1.98
CC(C)C#N | % | 0.256
ClCC(Br)CBr (configuration not stated) | % | -0.863

###

Test system: HIV-1 nucleocapsid protein NCp7 (binding to TG oligonucleotide)
Test Description: HIV Nucleocapsid (AID 346);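 note: potency is for inhibitors that block NC binding and lower polarization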
Condition Set: HIV-1 NC / fluorescein-TGTGTGTG probe, fluorescence polarization
Activity calls are given as the source filed them. How the calls were made is not given here.
Labels: YES (active), NO (inactive)

Mol Smiles | Qualitative Label
COc1ccc(CNc2ccnc(-c3ccccc3C(F)(F)F)n2)c(OC)c1 | NO
N#Cc1ccccc1-c1cncnc1NCc1cccnc1 | NO
N#Cc1cccc(-c2nccc(NCc3cccs3)n2)c1 | NO
COCC(=O)N1CCC2(CC1)CN(c1ccc(-c3ccccc3)cc1)C2 | NO
Cc1nc2cnc(OCc3ccccc3)nc2n(Cc2ccc(F)cc2)c1=O | NO
COc1cccc(-c2ccc3ncnc(N4CCN(C)CC4)c3c2)c1 | NO
COCCNc1ncnc2ccc(-c3cccnc3)cc12 | NO
N#CCCn1c(=O)c(-c2cccs2)nc2cnc(N3CCOCC3)nc21 | YES
CS(=O)(=O)N1CCC2(CCCN(c3cccc(-c4ccccc4)c3)C2)CC1 | NO
COc1cccc(Cn2c(=O)c(-c3ccc(Cl)cc3)nc3cnc(N4CCOCC4)nc32)c1 | NO
CN1CCN(c2cc(-c3ccoc3)ncn2)CC1 | NO
COCCn1c(=O)c(CCc2ccccc2)nc2cncnc21 | NO
CCNc1ncc2nc(CCc3ccccc3)c(=O)n(-c3ccccc3)c2n1 | NO
c1ccc(C(c2ccccc2)N2CC[C@@]3(CCCNC3)C2)cc1 | NO
Cc1cccc(CNc2ccnc(-c3ccccc3Cl)n2)c1 | NO
Cc1cnc(CNc2ncncc2-c2cccc(NS(C)(=O)=O)c2)cn1 | NO
COCCn1c(=O)c(-c2ccc(F)cc2)nc2cnc(Oc3ccc(OC)cc3)nc21 | NO
O=C(c1cccc(F)c1)N1CCC2(CC1)CN(C(c1ccccc1)c1ccccc1)C2 | NO
COC(=O)N1CCC2(CC1)CN(c1ccccc1)C2 | NO
COc1ccc(-c2nc3cnc(OC)nc3n(C[C@H]3CCCO3)c2=O)cc1 | NO
Cc1cccc(CNc2ncncc2-c2ccccc2C)c1 | NO
CN(C)c1ncc2nc(-c3ccccc3)c(=O)n(Cc3cccs3)c2n1 | NO
Cc1ccccc1-c1nc(NCc2cccnc2)c2ccccc2n1 | NO
